tested on: 292921-168-R-J2-PDC complex spheroid growth; test: Anticancer human tumor 292921-168-R-J2-PDC patient-derived pancreatic carcinoma cell line growth inhibition [AhR]; details: curve of first compound; second compound 0.1 µM;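 also: spheroids exposed to compounds for seven days after three days of growth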
OBSERVED PROPERTY: pIC50
The scale used: pIC50 is minus the common logarithm of the concentration in molar units.

O=C(C=Cc1cccc(S(=O)(=O)Nc2ccccc2)c1)NO + CC(CO)NC(=O)c1cc(-c2ccc(Cl)cc2)nn(-c2cnn(C)c2)c1=O :: 6.55

Query: pIC50; subject: CC1COCCN1c1cc(-c2ccnn2C)c2ccnc(-c3ccn[nH]3)c2n1 (stereo not drawn) + Cc1cncc(-c2nc(NCCc3c[nH]c4ccccc34)c3ncn(C(C)C)c3n2)c1 7.32

Origin of measurements: PubChem BioAssay AID1918994
